Values from patent US20220281969A1

# SUBJECT OF TEST: T1, recombinant human LRP6-Fc chimera (human, UniProt O75581 20-1370)
# T1 construct: extracellular domain; also called human LRP6 chimera; not shown: Fc part of the chimera
# T1 sequence (looked up): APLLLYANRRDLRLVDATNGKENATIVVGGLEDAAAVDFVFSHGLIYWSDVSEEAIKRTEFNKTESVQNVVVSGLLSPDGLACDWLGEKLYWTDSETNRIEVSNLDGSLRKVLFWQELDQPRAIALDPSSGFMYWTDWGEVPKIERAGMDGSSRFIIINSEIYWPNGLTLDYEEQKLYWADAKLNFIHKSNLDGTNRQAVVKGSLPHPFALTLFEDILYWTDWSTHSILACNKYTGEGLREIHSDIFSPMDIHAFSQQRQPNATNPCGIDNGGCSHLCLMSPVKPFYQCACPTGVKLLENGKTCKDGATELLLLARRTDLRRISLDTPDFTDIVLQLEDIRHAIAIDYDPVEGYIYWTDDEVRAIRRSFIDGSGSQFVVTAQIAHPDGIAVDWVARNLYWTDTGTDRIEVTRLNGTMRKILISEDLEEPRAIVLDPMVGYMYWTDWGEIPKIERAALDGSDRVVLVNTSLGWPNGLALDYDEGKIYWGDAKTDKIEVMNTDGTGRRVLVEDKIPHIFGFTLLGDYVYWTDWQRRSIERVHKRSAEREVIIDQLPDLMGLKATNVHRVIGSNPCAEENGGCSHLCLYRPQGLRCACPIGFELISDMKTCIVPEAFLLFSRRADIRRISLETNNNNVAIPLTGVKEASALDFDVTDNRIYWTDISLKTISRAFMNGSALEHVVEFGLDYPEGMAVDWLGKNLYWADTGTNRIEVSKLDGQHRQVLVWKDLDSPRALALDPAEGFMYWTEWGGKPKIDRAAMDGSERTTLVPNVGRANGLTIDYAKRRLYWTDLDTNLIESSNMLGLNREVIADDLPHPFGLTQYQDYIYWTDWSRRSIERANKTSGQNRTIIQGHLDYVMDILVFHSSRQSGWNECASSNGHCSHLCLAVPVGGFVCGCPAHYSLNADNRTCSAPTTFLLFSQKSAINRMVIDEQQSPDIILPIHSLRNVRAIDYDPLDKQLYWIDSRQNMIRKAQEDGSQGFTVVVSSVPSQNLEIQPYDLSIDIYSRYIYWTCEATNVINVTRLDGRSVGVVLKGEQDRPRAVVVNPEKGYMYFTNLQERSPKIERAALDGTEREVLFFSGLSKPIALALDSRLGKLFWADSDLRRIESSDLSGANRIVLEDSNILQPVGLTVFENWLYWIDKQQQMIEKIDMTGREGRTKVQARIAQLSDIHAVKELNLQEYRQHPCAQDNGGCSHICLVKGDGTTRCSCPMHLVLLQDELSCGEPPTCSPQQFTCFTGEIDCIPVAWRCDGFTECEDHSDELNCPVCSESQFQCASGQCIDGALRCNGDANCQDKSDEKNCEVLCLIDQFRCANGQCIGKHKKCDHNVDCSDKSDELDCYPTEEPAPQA
# EXPERIMENT: multipoint competitive ELISA; human LRP6-Fc chimera titrated against OD450 of the IgG1; non-linear regression
MEASURE: IC50 (nM)
Please state the figure in nM; there is no need to write the unit.

Entry LRP6-G9 IgG1 antibody (antibody, V domains shown, Tested as purified full length IgG1) VH: EVQLVESGGGLVQPGGSLRLSCAASGFNIYSYYIHWVRQAPGKGLEWVASIYSSYSYTSYADSVKGRFTISADTSKNTAYLQMNSLRAEDTAVYYCARTVRGSKKPYFSGWAMDYWGQGTLVTVSS VL: DIQMTQSPSSLSASVGDRVTITCRASQSVSSAVAWYQQKPGKAPKLLIYSASSLYSGVPSRFSGSRSGTDFTLTISSLQPEDFATYYCQQYYWPITFGQGTKVEIKR — recorded IC50 = 6.03
